protocol: Plasma pharmacokinetics of olaparib in rats after a single oral dose, alone or with metformin (UPLC-MS/MS, non-compartmental)
Format: in vivo, Wistar rats
condition.info: male, Wistar, rat, plasma, oral, 100 mg/kg, t 0.333 h; IIIOLA (olaparib alone); group mean; read-out: Cave_ola
reported.metric: concentration at 0.333 h (ng/mL)
Hi! Could you send only the number? It should be in ng/mL, unit omitted.

Briefly, concentration at 0.333 h measured for O=C(c1cc(Cc2n[nH]c(=O)c3ccccc23)ccc1F)N1CCN(C(=O)C2CC2)CC1 [olaparib, Olaparib] : 3790

---

protocol: Plasma pharmacokinetics of olaparib in rats after a single oral dose, alone or with metformin (UPLC-MS/MS, non-compartmental)
Type: in vivo, Wistar rats
condition.info: male, Wistar, rat, plasma, oral, t 4 h; IMET+OLA (metformin and olaparib); group mean; read-out: Cave_ola
reported.metric: concentration at 4 h (ng/mL)
Record the value in ng/mL, omitting the unit from your answer.

Query O=C(c1cc(Cc2n[nH]c(=O)c3ccccc23)ccc1F)N1CCN(C(=O)C2CC2)CC1 yields concentration at 4 h of 3200

---

protocol: Plasma pharmacokinetics of metformin in rats after a single oral dose, alone or with olaparib (HPLC-UV, non-compartmental)
Format: in vivo, Wistar rats
condition.info: male, Wistar, rat, plasma, oral, t 24 h; IMET+OLA (metformin and olaparib); group mean; read-out: Cmet, S (group mean)
reported.metric: concentration at 24 h (ng/mL)
Response body: numeric value in ng/mL, unit text excluded.

Value of measured concentration at 24 h for the entry CN(C)C(=N)N=C(N)N : 182

---

protocol: Plasma pharmacokinetics of metformin in rats after a single oral dose, alone or with olaparib (HPLC-UV, non-compartmental)
Format: in vivo, Wistar rats
condition.info: male, Wistar, rat, plasma, po, 100 mg/kg, rat plasma; IIMET: metformin 100 mg/kg b.w. oral single dose alone; n = 8; mean ± SD
reported.metric: k el

Given item CN(C)C(=N)N=C(N)N [metformin, Metformin] , the value recorded as its k el is 8.89e-06 s⁻¹

---

protocol: Plasma pharmacokinetics of olaparib in rats after a single oral dose, alone or with metformin (UPLC-MS/MS, non-compartmental)
Assay type: in vivo, Wistar rats
condition.info: male, Wistar, rat, plasma, po, 100 mg/kg, rat plasma; IIIOLA: olaparib 100 mg/kg b.w. oral single dose alone; n = 8; mean ± SD
reported.metric: Cmax (ng/mL)
Give your result in ng/mL as a bare value.

Lab note: O=C(c1cc(Cc2n[nH]c(=O)c3ccccc23)ccc1F)N1CCN(C(=O)C2CC2)CC1 gave Cmax of 8720

---

protocol: Plasma pharmacokinetics of olaparib in rats after a single oral dose, alone or with metformin (UPLC-MS/MS, non-compartmental)
Assay type: in vivo, Wistar rats
condition.info: male, Wistar, rat, plasma, oral, t 8 h; IMET+OLA (metformin and olaparib); group mean; read-out: Cave_ola
reported.metric: concentration at 8 h (ng/mL)
Give just the numeric value; ng/mL need not be written.

Lab book: concentration at 8 h of O=C(c1cc(Cc2n[nH]c(=O)c3ccccc23)ccc1F)N1CCN(C(=O)C2CC2)CC1 noted as 490

---

protocol: Plasma pharmacokinetics of olaparib in rats after a single oral dose, alone or with metformin (UPLC-MS/MS, non-compartmental)
Format: in vivo, Wistar rats
condition.info: male, Wistar, rat, plasma, po, 100 mg/kg, rat plasma; IIIOLA: olaparib 100 mg/kg b.w. oral single dose alone; n = 8; mean ± SD
reported.metric: k el (s⁻¹)
// note: answer is a bare numeric in s⁻¹

Lab note: O=C(c1cc(Cc2n[nH]c(=O)c3ccccc23)ccc1F)N1CCN(C(=O)C2CC2)CC1 gave k el of 0.000122
